Each recorded value in this set is attributed to patent US20240325555A1.

- System tested: T1, human LIV-1 (human, UniProt Q13433 29-755)
- T1 construct: whole, on cells; also called H-LIV1
- T1 sequence (looked up): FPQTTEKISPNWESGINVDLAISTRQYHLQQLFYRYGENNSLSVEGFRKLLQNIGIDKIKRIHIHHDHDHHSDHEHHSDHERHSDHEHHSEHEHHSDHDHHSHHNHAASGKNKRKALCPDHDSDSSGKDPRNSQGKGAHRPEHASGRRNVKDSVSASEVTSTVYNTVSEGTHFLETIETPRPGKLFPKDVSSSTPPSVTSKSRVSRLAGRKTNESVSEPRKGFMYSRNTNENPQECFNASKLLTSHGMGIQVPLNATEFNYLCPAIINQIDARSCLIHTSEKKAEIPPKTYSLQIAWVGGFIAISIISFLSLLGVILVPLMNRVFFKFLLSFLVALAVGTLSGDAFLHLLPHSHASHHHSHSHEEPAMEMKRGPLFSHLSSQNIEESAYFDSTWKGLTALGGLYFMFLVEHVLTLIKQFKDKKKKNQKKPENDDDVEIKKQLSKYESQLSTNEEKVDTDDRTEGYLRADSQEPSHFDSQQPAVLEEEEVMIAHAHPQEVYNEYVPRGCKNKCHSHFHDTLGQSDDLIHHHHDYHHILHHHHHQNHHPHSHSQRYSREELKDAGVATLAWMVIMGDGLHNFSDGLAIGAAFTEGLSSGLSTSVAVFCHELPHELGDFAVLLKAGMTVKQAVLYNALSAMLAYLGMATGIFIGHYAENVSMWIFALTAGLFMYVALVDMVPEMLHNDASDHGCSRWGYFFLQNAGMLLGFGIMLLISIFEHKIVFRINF
- Experiment: FACS, HEK293/H_LIV-1 cells
Quantity: Top (MFI)
Report the figure in MFI without appending any unit label.

Known results for binders:
[
  {
    "Binder": "282G5A2 (antibody, V domains shown, Tested as chimeric antibody) VH: QVQLQQSGAELVRPGTSVKVSCKASGYALTKYLIEWIKQRPGQGLEWIGVINPGNAGNNYNEKFKGKATLTVDQSSSTAYMQLSSLTSEDSAVYFCARRGRDYAMDNWGQGTSVTVSS VL: EIVLTQSPAIMSASLGEKVTMSCRASSSINYIYWYQQKSDASPKLWIYYTSNLAPGVPARFSGSGSGNSYSLTISSMEDEDAATYYCQQFTSSPLTFGAGTKLELK",
    "Top (MFI)": 19700
  },
  {
    "Binder": "72B12F1 (antibody, V domains shown, Tested as chimeric antibody) VH: EVQLQQSGAELVKPGASVKLSCTASGFNIKDTYMHWVKQRPEQGLEWIGRIDPANGNTKNDPRFQGKATITADTSSNTAYLQLSRLTSEDTAVYYCAGGGITTVVPDHWGQGTTLTVSS VL: DVVMTQTPLSLPVSLGDQASISCRSSQSLVHSNGNTYLQWYLQKPGQSPKLLIYKVSNRFSGVPDRFSGSGSGTDFTLKISRVEAEDLGVYFCSQSTHVPYTFGGGTKLEIK",
    "Top (MFI)": 10700
  },
  {
    "Binder": "69B3D6 (antibody, V domains shown, Tested as chimeric antibody) VH: QVQLQQSGPELVKPGASVRISCKASGYTFTSYHMHWVKQRPGQGLEWIGWIYPGNVKNQSNEKFKGKATLTADKSSSTAYMQLSSLTSEDSAVYFCARSDITRAFFAYWGQGTLVTVSA VL: DVLMTQTPLSLPVSLGDQASISCRSSQSIVHSNGNTYLEWYLQKPGQSPKLLIYKVSNRFSGVPDRFSGSGSGTDFTLKISRVEAEDLGVYYCFQGSHVPYTFGGGTKLEIK",
    "Top (MFI)": 11500
  },
  {
    "Binder": "59C12C8 (antibody, V domains shown, Tested as chimeric antibody) VH: EVQLQQSGAELVRSGASVKLSCTASDFNIEDYYIHWVKQRPEQGLEWIGWIDPENGDTEYAPKFQGKATMTADTSSNTAYLQLSSLTSEDTAVYYCPHGGGFRVFDYWGQGTTLTVSS VL: DVLMTQTPLSLPVSLGDQASISCRSSQRIVHSNGNTYLEWYLQKPGQSPKLLIYKVSNRFSGVPDRFSGSGSGTDFTLKISRVEAEDLGVYYCFQGSHVPWTFGGGTKLEIK",
    "Top (MFI)": 15100
  }
]

The record that follows has no Top (MFI) shown yet.
Request: Query Top (MFI) for 124H4D11 (antibody, V domains shown, Tested as chimeric antibody) VH: EVPLQQSGAELVRSGASVKLSCTASGFNIKDYYMHWVKQRPEQGLEWIGWIDPENGDTEYDPKFQGKATMTADTSSNTADLQLSSLTSEDTAVYYCNARYYAFDYWGQGTTLTVSS VL: DVLMTQTPLSLPVSLGDQASISCRSSQSIVHSNGNTYLEWYLQKPGQSPKLLIYKVSNRFSGVPDRFSGSGSGTEFTLKISRVEAEDLGVYYCFQGSQVPPTFGGGTRLEIK
Result: 7980
